- Tested on: Caenorhabditis elegans N2
- test description: mean nematode size ln(EXT) after 48 h, plate-adjusted (DMSO control set to 6) (ln(EXT), control-adjusted); higher = larger nematodes / less growth inhibition
- condition label: 5 µM; exposure time 48 h
outcome measure: mean nematode size ln(EXT) (ln)

1. O=C1c2ccccc2C(=O)N1SC(Cl)(Cl)Cl
5.57
2. CCOC(=O)C(C)OC(=O)c1cc(Oc2ccc(C(F)(F)F)cc2Cl)ccc1[N+](=O)[O-] (centres undefined)
5.8
3. CSc1nc(NC(C)C)nc(NC(C)C)n1
5.87
4. COc1cc(OC)nc(Sc2cccc(Cl)c2C(=O)O)n1 [Pyrithiobac-sodium]
6.11
5. O=C(N[C@@H](Cc1ccccc1)[C@@H](O)C(=O)N1C[C@@H](O)[C@@H](O)C1)c1cc2cc(Cl)ccc2[nH]1
5.75
6. CN(C)C(=O)NC1(c2ccccc2)CCN(CC[C@@]2(c3ccc(F)c(F)c3)CN(C(=O)c3ccccc3)CCO2)CC1
5.86
7. CCCCCCCCCCCCCO
5.58
8. N#CN [Cyanamide]
6.01
9. CCCCN(CCCC)N=O
5.93
10. CCCCCCCC/C=C\CCCCCCCC(=O)OC[C@@H](O)[C@H]1OC[C@H](O)[C@H]1O [Sorbitan, mono-(9Z)-9-octadecenoate]
5.92
11. CC(C)(C)c1ccc(CSc2cnn(C(C)(C)C)c(=O)c2Cl)cc1
4.31
12. CC(C1CC1)C(O)(Cn1cncn1)c1ccc(Cl)cc1 (centres undefined)
5.85
13. N#CC(CCc1ccc(Cl)cc1)(Cn1cncn1)c1ccccc1 (centres undefined)
6.07
14. O=C(O)C(F)(F)C(F)(F)C(F)(F)C(F)(F)C(F)(F)C(F)(F)C(F)(F)F
5.94
15. c1ccc2[nH]c(-c3cscn3)nc2c1
6.02
16. ClC1=C(Cl)C2(Cl)C3C4CC(C5OC45)C3C1(Cl)C2(Cl)Cl (centres undefined)
4.99
17. Nc1ccc(Cc2ccc(N)cc2)cc1
5.91
18. Nc1c(Cl)c(Cl)nc(C(=O)O)c1Cl
6.09
19. CC(=O)NC1(c2cccc(F)c2)CCN(CC[C@@]2(c3ccc(Cl)c(Cl)c3)CN(c3ccccc3)C(=O)CO2)CC1
5.85

---

mean nematode size ln(EXT) (ln) by entry:
- System: Caenorhabditis elegans N2
- test description: mean nematode size ln(EXT) after 48 h, plate-adjusted (DMSO control set to 6) (ln(EXT), control-adjusted); higher = larger nematodes / less growth inhibition
- condition label: 0.5 µM; exposure time 48 h
outcome measure: mean nematode size ln(EXT) (ln)

1. CCCCOCCOCCOCc1cc2c(cc1CCC)OCO2 [Piperonyl butoxide]
5.87
2. CCCCCCC(=O)OCC
5.88
3. Clc1cccc(Cl)c1
5.9
4. CCCCCCCCCCCO
5.77
5. CC1(C)C(C=C(Cl)Cl)C1C(=O)OC(C#N)c1cccc(Oc2ccccc2)c1 (stereo unspecified)
6.09
6. O=C(N[C@@H](c1ccccc1)[C@@H]1CCCCN1)c1cccc(C(F)(F)F)c1Cl
5.86
7. CC1(C)C(C(=O)OC(C#N)c2cccc(Oc3ccccc3)c2)C1(C)C (stereo unspecified)
5.91
8. CC(C)OC(=O)Nc1cccc(Cl)c1
5.75
9. C=CC(=O)OCCCCCC(C)C [Isooctyl acrylate]
5.42
10. COCc1cnc(C2=NC(C)(C(C)C)C(=O)N2)c(C(=O)O)c1 (stereo unspecified)
5.93
11. S=C([S-])NCCNC(=S)[S-].[Mn+2]
5.91

Attribution: the supplement of paper PMC4858399
